Let's look at some compounds and their measured MIC.
test system: Klebsiella pneumoniae; experiment: Antibacterial activity against Klebsiella pneumoniae ATCC 700603 measured after 18 to 20 hrs in presence of FeIII cultured under CAA medium by broth microdilution method; format: functional; settings: time 18-20 hrs

Would you please look over these solved cases?
compound: CCn1cc(C(=O)O)c(=O)c2cc(F)c(N3CCNCC3)cc21 [NORFLOXACIN]
recorded value: 31.2 µM
--
compound: CC(C)=CCc1c(OCCCCCCC(=O)NCc2cc(=O)c(O)cn2C)cc(/C=C/c2ccc(F)cc2)c(C(=O)O)c1O
recorded value: > 250 µM
--
compound: CC(C)=CCc1c(OCCCCCCCC(=O)NCc2cc(=O)c(O)cn2C)cc(/C=C/c2ccc(F)cc2)c(C(=O)O)c1O
recorded value: > 250 µM
--
compound: CC1(C)S[C@@H]2[C@H](NC(=O)[C@H](N)c3ccccc3)C(=O)N2[C@H]1C(=O)O [AMPICILLIN]
recorded value: > 250 µM

Now consider the entry below.
Lookup: So what does the record say about MIC for COc1cc(/C=C/c2ccc(F)cc2)c(C(=O)O)c(O)c1CC=C(C)C ?
Found: > 250 µM

====

Let's look at some compounds and their measured MIC.
test system: Pseudomonas aeruginosa; experiment: Antibacterial activity against Pseudomonas aeruginosa PAO1 measured after 18 to 20 hrs in presence of FeIII cultured under CAA medium by broth microdilution method; format: functional; conditions: time 18-20 hrs
Just the number please, in µM, no unit attached.

chemical smiles: CC1(C)S[C@@H]2[C@H](NC(=O)[C@H](N)c3ccccc3)C(=O)N2[C@H]1C(=O)O
unit info: µM
MIC: 62.5

Lookup: So what does the record say about MIC for CCn1cc(C(=O)O)c(=O)c2cc(F)c(N3CCNCC3)cc21 ?
Found: 1.95

====

tested on: Escherichia coli; experiment: Antibacterial activity against Escherichia coli ATCC 25922 measured after 18 to 20 hrs in presence of FeIII cultured under CAA medium by broth microdilution method; type: functional; conditions: time 18-20 hrs
Let's look at some compounds and their measured MIC.
Just the number please, in µM, no unit attached.

chemical smiles: CC1(C)S[C@@H]2[C@H](NC(=O)[C@H](N)c3ccccc3)C(=O)N2[C@H]1C(=O)O
target: Escherichia coli
MIC (µM): 3.9

Now consider the entry below.
Lookup: So what does the record say about MIC for CCn1cc(C(=O)O)c(=O)c2cc(F)c(N3CCNCC3)cc21 ?
Found: 0.49

====

test system: Pseudomonas aeruginosa; test: Antibacterial activity against Pseudomonas aeruginosa PAO1 measured after 18 to 20 hrs in presence of FeIII cultured under CAA medium by broth microdilution method; assay type: functional; conditions: time 18-20 hrs
outcome measure: MIC

Would you please look over these solved cases?
chemical smiles: CC(C)=CCc1c(OCCCCCCCC(=O)NCc2cc(=O)c(O)cn2C)cc(/C=C/c2ccc(F)cc2)c(C(=O)O)c1O
target: Pseudomonas aeruginosa
MIC: > 250 µM

chemical smiles: CC(C)=CCc1c(OCCCCCCC(=O)NCc2cc(=O)c(O)cn2C)cc(/C=C/c2ccc(F)cc2)c(C(=O)O)c1O
target: Pseudomonas aeruginosa
MIC: > 250 µM

Lookup: So what does the record say about MIC for COc1cc(/C=C/c2ccc(F)cc2)c(C(=O)O)c(O)c1CC=C(C)C ?
Found: > 250 µM

====

test system: Escherichia coli; assay: Antibacterial activity against Escherichia coli ATCC 25922 measured after 18 to 20 hrs in presence of FeIII cultured under CAA medium by broth microdilution method; assay type: functional; settings: time 18-20 hrs
outcome measure: MIC

Would you please look over these solved cases?
chemical smiles: COc1cc(/C=C/c2ccc(F)cc2)c(C(=O)O)c(O)c1CC=C(C)C
MIC: > 250 µM
//
chemical smiles: CC(C)=CCc1c(OCCCCCCC(=O)NCc2cc(=O)c(O)cn2C)cc(/C=C/c2ccc(F)cc2)c(C(=O)O)c1O
MIC: > 250 µM

Now consider the entry below.
Lookup: So what does the record say about MIC for CC(C)=CCc1c(OCCCCCCCC(=O)NCc2cc(=O)c(O)cn2C)cc(/C=C/c2ccc(F)cc2)c(C(=O)O)c1O ?
Found: > 250 µM
